The reported measurements were obtained from ChEMBL document CHEMBL1130232.

Target System: Estrogen receptor (Homo sapiens, UniProt Q92731+P03372)
Protocol Text: Affinity for estrogen receptor of human MCF-7 cells
Format: cell-based
Test Context: mcf7
Field: EC50. Provide a value for each of the compounds that follow.
Write down the numeric answer in nM and omit the unit.

Request: Supply measured EC50 of C[C@]12CC[C@@H]3c4ccc(O)c(O)c4CC[C@H]3[C@@H]1CC[C@@H]2O in your reply.
Result: 506

Request: Give EC50 for the following compound: C[C@]12CC[C@@H]3c4ccc(O)c(CCO)c4CC[C@H]3[C@@H]1CC[C@@H]2O
Result: 620

Request: Assign EC50 to the following record: C[C@]12CC[C@@H]3c4ccc(O)c(CCCO)c4CC[C@H]3[C@@H]1CC[C@@H]2O
Result: 3320

Request: Determine its reported EC50: C[C@]12CC[C@@H]3c4ccc(O)c(CO)c4CC[C@H]3[C@@H]1CC[C@@H]2O
Result: 364

----------
So I've got a bunch of compounds here, and I need their EC50 values.
Target System: Estrogen receptor (Homo sapiens, UniProt Q92731+P03372)
Protocol Text: Induction of pS2 Gene expression in human MCF-7 cells
Assay type: functional, cell-based
Test Context: mcf7

Request: Provide Estrogen receptor (Homo sapiens, UniProt Q92731+P03372) EC50 reading for C[C@]12CC[C@@H]3c4ccc(O)c(CCCO)c4CC[C@H]3[C@@H]1CC[C@@H]2O .
Result: 2950 nM

Request: Output reported EC50 of the compound C[C@]12CC[C@@H]3c4ccc(O)c(O)c4CC[C@H]3[C@@H]1CC[C@@H]2O on Estrogen receptor (Homo sapiens, UniProt Q92731+P03372).
Result: 65.4 nM

Request: Write EC50 of C[C@]12CC[C@@H]3c4ccc(O)c(CO)c4CC[C@H]3[C@@H]1CC[C@@H]2O ; system used: Estrogen receptor (Homo sapiens, UniProt Q92731+P03372)
Result: 11.7 nM

Request: Specify EC50 for C[C@]12CC[C@@H]3c4ccc(O)c(CCO)c4CC[C@H]3[C@@H]1CC[C@@H]2O , system Estrogen receptor (Homo sapiens, UniProt Q92731+P03372).
Result: 148 nM
